Each item that follows carries a reported IC50.
molecular target: Translocator protein (Rattus norvegicus, UniProt P16257); test: Displacement of [11C]DAA1106 from PBR in Sprague-Dawley rat brain; type: tissue-based
Sequence (P16257 whole entry, looked up): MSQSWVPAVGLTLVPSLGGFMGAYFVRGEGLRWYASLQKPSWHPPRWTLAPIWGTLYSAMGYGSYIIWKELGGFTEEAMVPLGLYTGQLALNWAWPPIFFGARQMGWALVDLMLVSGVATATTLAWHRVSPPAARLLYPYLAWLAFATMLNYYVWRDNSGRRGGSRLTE
Respond with the bare value in nM.

| Substance smiles | Unit name | IC50 |
| --- | --- | --- |
| COc1ccc(OC)c(CN(C(C)=O)c2cc(I)ccc2Oc2ccccc2)c1 | nM | 69.2 |

Please fill in: IC50 reported for COc1ccc(I)c(CN(C(C)=O)c2cc(F)ccc2Oc2ccccc2)c1 = 7.8

* * *

biological target: Translocator protein (Rattus norvegicus); assay: Displacement of [11C]PK-11195 from PBR in Sprague-Dawley rat brain; type: tissue-based
Readout label: pIC50
Keep in mind that pIC50 stands for -log10 of concentration in molar terms.

| Substance smiles | Measured target | Readout value |
| --- | --- | --- |
| COc1ccc(OC)c(CN(C(C)=O)c2cc(F)ccc2Oc2ccccc2)c1 | Translocator protein (Rattus norvegicus) | 8.89 |
| COc1ccc(I)c(CN(C(C)=O)c2cc(F)ccc2Oc2ccccc2)c1 | Translocator protein (Rattus norvegicus) | 8.36 |

Kindly consider the entry below.
Considering COc1ccc(OC)c(CN(C(C)=O)c2cc(I)ccc2Oc2ccccc2)c1 , its pIC50 with Translocator protein (Rattus norvegicus) was recorded as 7.22
